- Target: T1, 4H3497-bA
- T1 chain: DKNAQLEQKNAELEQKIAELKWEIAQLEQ
- Procedure summary: two-hybrid library CCNG1;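 also: natural log of median RNA to DNA barcode read ratio; higher means stronger binding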
Experimental endpoint: interaction score

DENAQLKQENAELEQKIAELKWKIAQLKQ [4H1710-bA]: 1.01
DENAQLEQKIAELKQENAELKWKIAQLEQ [4H1373-bA]: -1.17
DKIAQLEQKNAELEQEIAELKWEIAQLKQ [4H2442-bA]: 1.63

[1] DENAQLKQKIAELKQKIAELKWENAQLEQ [4H1899-bA]
[2] DKNAQLEQEIAELKQENAELKWEIAQLKQ [4H3162-bA]
Please choose the item with the lower interaction score value from this pair: 1 and 2 In your reply, give the label of the chosen option.
2
(2: -0.885, 1: -0.482)

[a] DKNAQLEQENAELKQEIAELKWKIAQLEQ [4H3277-bA]
[b] DKNAQLEQKNAELEQKIAELKWEIAQLEQ [4H3497-bA]
Which has the higher interaction score, a or b ? In your reply, give the label of the chosen option.
b
(b: -0.278, a: -0.961)
